test: Henry solubility constant Hcp at 298.15 K (mol/(m3 Pa))
conditions_used: reference: Merk and Riederer (1997)
Form field: Henry solubility constant Hcp (one value per entry).

Sample records with Henry solubility constant Hcp:
| compound | Henry solubility constant Hcp |
| --- | --- |
| CCCC(C)O (stereo not given) | 0.66 |
| CC(C)CO | 0.78 |
| CCO | 1.9 |
| CC(C)O | 1.2 |
| CCCO | 1.5 |

Prompt line: State, in one line, measured Henry solubility constant Hcp of CCCCCO
Response line: 0.77

Prompt line: Give the reported Henry solubility constant Hcp for this compound. CCCCC(C)O (stereo not given)
Response line: 0.48

Prompt line: Identify the reported Henry solubility constant Hcp for the following entry. CCCCCCO
Response line: 0.58

Prompt line: Name the recorded Henry solubility constant Hcp of the compound listed here: CCC(C)(C)O
Response line: 0.7

Prompt line: Assign Henry solubility constant Hcp to the following record: CCC(C)O (stereo not given)
Response line: 0.83

The origin of these recorded values is Sander's compilation of Henry's law constants (doi:10.1093/jxb/48.5.1095).
